test system: KURAMOCHI; assay: drug sensitivity score (DSS2) on cancer cell count; higher = more sensitive; extreme values may be limits of the assay; details: co-cultured fibroblast: WI38; 72 h
Consider the following molecules and their measured drug sensitivity score readings.
Express your answer in DSS, writing the number without its unit.

Answered examples (5):
{"columns": ["MOLECULE", "drug sensitivity score [DSS]"],
 "data": [
  ["Cc1ccc(Nc2nccc(N(C)c3ccc4c(C)n(C)nc4c3)n2)cc1S(N)(=O)=O", 2],
  ["O=C(NC[C@H](O)CN1CCc2ccccc2C1)c1cc(NC2COC2)ncn1", 0],
  ["N#CC(c1ccnc(OCc2ccc(CN3CCOCC3)cc2)n1)c1nc2ccccc2s1 (configuration not stated)", 2.3],
  ["COc1cc(N2CCC(N3CCN(C)CC3)CC2)ccc1Nc1ncnc(Nc2ccccc2S(=O)(=O)C(C)C)n1", 2],
  ["CN(C)Cc1ccc(S(=O)(=O)n2ccc(/C=C/C(=O)NO)c2)cc1", 10]
]}

Request: Report drug sensitivity score for CN(C)CC#Cc1ccc(OCCCc2sc(N3CCc4cccc(C(=O)Nc5nc6ccccc6s5)c4C3)nc2C(=O)O)c(F)c1 please.
Response: 6.1

Request: Report drug sensitivity score for O=C(NCc1ccncc1)C12CC3CC(C1)CC(c1ccc(Cl)cc1)(C3)C2 please.
Response: 5.6

---

test system: KURAMOCHI; test: drug sensitivity score (DSS2) on cancer cell count; higher = more sensitive; extreme values may be limits of the assay; settings: co-cultured fibroblast: BJHTERT; 72 h
Consider the following compounds and their measured drug sensitivity score readings.
Express your answer in DSS, writing the number without its unit.

{"columns": ["COMPOUND", "drug sensitivity score / DSS"],
 "data": [
  ["Cc1nc(-c2cn3c(n2)-c2ccc(-c4cnn(C(C)(C)C(N)=O)c4)cc2OCC3)n(C(C)C)n1 [Taselisib]", 9.2],
  ["CN(Cc1cnc2nc(N)nc(N)c2n1)c1ccc(C(=O)N[C@@H](CCC(=O)O)C(=O)O)cc1 [Methotrexate]", 5.9],
  ["CC(C)[C@H](C(=O)Nc1ccc(C(=O)NO)cc1)c1ccccc1 [AR-42]", 14],
  ["C=CC[C@@H]1/C=C(\\C)C[C@H](C)C[C@H](OC)[C@H]2O[C@@](O)(C(=O)C(=O)N3CCCC[C@H]3C(=O)O[C@H](/C(C)=C/[C@@H]3CC[C@@H](O)[C@H](OC)C3)[C@H](C)[C@@H](O)CC1=O)[C@H](C)C[C@@H]2OC [Tacrolimus]", 1],
  ["CC(=O)O[C@@]12CO[C@@H]1C[C@H](O)[C@@]1(C)C(=O)[C@H](O)C3=C(C)[C@@H](OC(=O)[C@H](O)[C@@H](NC(=O)OC(C)(C)C)c4ccccc4)C[C@@](O)([C@@H](OC(=O)c4ccccc4)[C@H]21)C3(C)C [Docetaxel]", 27.4]
]}

Request: What is its drug sensitivity score for KURAMOCHI? Entry: CCN(CC)CCOc1ccc(C(=C(Cl)c2ccccc2)c2ccccc2)cc1 [Clomifene]
Response: 3.7

Request: What is its drug sensitivity score for KURAMOCHI? Entry: C[C@@H]1CN(C(=O)c2ccc(NC(=O)c3cc(O[C@H](C)c4c(Cl)ccc(F)c4Cl)c(N)nn3)cc2)C[C@H](C)N1 [Ensartinib]
Response: 1

---

tested on: KURAMOCHI; assay: drug sensitivity score (DSS2) on cancer cell count; higher = more sensitive; extreme values may be limits of the assay; conditions: co-cultured fibroblast: WI38; 72 h
Threshold check on drug sensitivity score: at or above 10 DSS gives T, strictly below gives F.

Before answering, review these 3 worked examples.
{"columns": ["MOLECULE", "CLASS"],
 "data": [
  ["CO[C@H]1C[C@@H]2CC[C@@H](C)[C@@](O)(O2)C(=O)C(=O)N2CCCC[C@H]2C(=O)O[C@H]([C@H](C)C[C@@H]2CC[C@@H](OCCO)[C@H](OC)C2)CC(=O)[C@H](C)/C=C(\\C)[C@@H](O)[C@@H](OC)C(=O)[C@H](C)C[C@H](C)/C=C/C=C/C=C/1C", "F"],
  ["CN1CCN(c2cc(C(=O)Nc3ccc4c(c3)-c3c(c(C(N)=O)nn3-c3ccc(F)cc3)CC4)c(Cl)cn2)CC1", "F"],
  ["CC(=O)c1cnc2ccc(-c3cc(Cl)c(O)c(Cl)c3)nc2c1N[C@H]1CC[C@H](CN(C)C)CC1", "T"]
]}

Request: Hi team, for CCN1C(=O)CNc2ncc(-c3ccc(-c4nc[nH]n4)nc3C)nc21 , is the recorded drug sensitivity score at or above 10 DSS?
Response: F

Request: Hi team, for CCOc1ccn(-c2ccc(F)cc2)c(=O)c1C(=O)Nc1ccc(Oc2ccnc(N)c2Cl)c(F)c1 , is the recorded drug sensitivity score at or above 10 DSS?
Response: F

Request: Hi team, for Nc1cc(F)ccc1NC(=O)c1ccc(CNC(=O)/C=C/c2cccnc2)cc1 , is the recorded drug sensitivity score at or above 10 DSS?
Response: T

Request: Hi team, for COc1ccc(S(=O)(=O)Nc2cccnc2Nc2ccc(O)cc2)cc1 , is the recorded drug sensitivity score at or above 10 DSS?
Response: T

Request: Hi team, for NS(=O)(=O)NCCNc1nonc1/C(=N/O)Nc1ccc(F)c(Br)c1 , is the recorded drug sensitivity score at or above 10 DSS?
Response: F

Request: Hi team, for COc1cc2c(cc1OCCCN1CCCC1)N=C(N)C21CCC1 , is the recorded drug sensitivity score at or above 10 DSS?
Response: F

Request: Hi team, for COc1ccc(-c2ccc3ncc4c(c3c2)n(-c2ccc(N3CCNCC3)c(C(F)(F)F)c2)c(=O)n4C)cn1 , is the recorded drug sensitivity score at or above 10 DSS?
Response: T

Request: Hi team, for CCn1c(-c2nonc2N)nc2cnc(Oc3cccc(NC(=O)c4ccc(OCCN5CCOCC5)cc4)c3)cc21 , is the recorded drug sensitivity score at or above 10 DSS?
Response: F

Request: Hi team, for Nc1ncn([C@H]2C[C@H](O)[C@@H](CO)O2)c(=O)n1 , is the recorded drug sensitivity score at or above 10 DSS?
Response: F

Request: Hi team, for Nc1ncnc2c1nc(Cl)n2[C@@H]1O[C@H](CO)[C@@H](O)[C@H]1O , is the recorded drug sensitivity score at or above 10 DSS?
Response: T

Request: Hi team, for CCOc1cc2ncc(C#N)c(Nc3ccc(OCc4ccccn4)c(Cl)c3)c2cc1NC(=O)/C=C/CN(C)C , is the recorded drug sensitivity score at or above 10 DSS?
Response: F
